Cited source for all entries: patent US20140288090A1

test-system: GST-PPARG-LBD (Homo sapiens, UniProt P37231)
Construct: A mixture of 5 nM GST-PPARG-LBD; purchased Invitrogen
Sequence (P37231 238-503 limits assumed): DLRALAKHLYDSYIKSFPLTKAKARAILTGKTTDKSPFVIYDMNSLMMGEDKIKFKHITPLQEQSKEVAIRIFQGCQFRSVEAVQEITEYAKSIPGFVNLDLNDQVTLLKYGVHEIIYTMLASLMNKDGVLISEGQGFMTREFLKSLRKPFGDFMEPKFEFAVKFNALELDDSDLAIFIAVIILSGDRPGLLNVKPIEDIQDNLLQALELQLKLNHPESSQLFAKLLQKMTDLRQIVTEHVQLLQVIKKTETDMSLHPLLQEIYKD
method: Lanthascreen PPARG competitive binding assay (Invitrogen)
measurement-conditions: Table 3, Lantha 2; read-out: IC50 (nM) Lantha 2
readout-kind: IC50 (nM)

Cc1nn(Cc2cccc(O[C@H](C)C(=O)O)c2)c2ccc(C(=O)N[C@@H](C)c3ccc(Br)cc3)cc12    21.6

[P] Cc1nn(Cc2ccc(-c3ccccc3C(=O)O)cc2)c2ccc(C(=O)N[C@H](C)C3CCCCC3)cc12
[Q] Cc1ccc([C@H](C)NC(=O)c2ccc3c(c2)c(C)nn3Cc2ccc(-c3ccccc3C(=O)O)cc2)cc1
[R] CC[C@H](NC(=O)c1ccc2c(c1)c(C)nn2Cc1ccc(-c2ccccc2C(=O)O)cc1)c1ccccc1
[S] COCCNC(=O)c1ccc2c(c1)c(C)nn2Cc1cccc(C#N)c1
Order field: IC50 | Direction: descending (largest first) Rank them, then answer with their labels in that order.
S, Q, P, R
(S: 4770 nM, Q: 31.8 nM, P: 21.6 nM, R: 13 nM)

====

test-system: GST-PPARG-LBD (Homo sapiens, UniProt P37231)
Construct: A mixture of 5 nM GST-PPARG-LBD; purchased Invitrogen
method: Lanthascreen PPARG competitive binding assay (Invitrogen)
measurement-conditions: Table 3, Lantha 2; read-out: IC50 (nM) Lantha 2
readout-kind: IC50 (nM)

COCCCNC(=O)c1ccc2c(c1)c(C)nn2Cc1ccc(-c2ccccc2C(=O)O)cc1    1740

[a] CC(C)c1nn(Cc2ccc(-c3ccccc3C(=O)O)cc2)c2ccc(C(=O)N[C@@H](C)c3ccc(Br)cc3)cc12
[b] Cc1nn(Cc2ccc(-c3ccccc3C(=O)O)cc2)c2ccc(C(=O)NC3CCCC3)cc12
[c] Cc1nn(Cc2ccc(-c3ccccc3C(=O)O)cc2)c2ccc(C(=O)N[C@H]3COc4ccccc4C3)cc12
[d] Cc1nn(Cc2ccc(-c3ccccc3C(=O)O)cc2)c2ccc(C(=O)N[C@@H](C)c3ccc(Br)cc3)cc12
Order field: IC50 | Direction: descending (largest first) Rank them, then answer with their labels in that order.
b, c, a, d
(b: 870 nM, c: 235 nM, a: 15.2 nM, d: 2.8 nM)
